Value source: patent EP4471048A1

# SYSTEM NAME: T1, Nluc-IL23R fusion protein (human, UniProt Q5VWK5 22-629)
# T1 construct: range 22-629; Stably expressed in HEK293 cells; also called hIL-23R; human IL-23R; not shown: Nanoluc protein (N1371, Promega) at the N-terminus, after a secretion signal
# T1 sequence (looked up): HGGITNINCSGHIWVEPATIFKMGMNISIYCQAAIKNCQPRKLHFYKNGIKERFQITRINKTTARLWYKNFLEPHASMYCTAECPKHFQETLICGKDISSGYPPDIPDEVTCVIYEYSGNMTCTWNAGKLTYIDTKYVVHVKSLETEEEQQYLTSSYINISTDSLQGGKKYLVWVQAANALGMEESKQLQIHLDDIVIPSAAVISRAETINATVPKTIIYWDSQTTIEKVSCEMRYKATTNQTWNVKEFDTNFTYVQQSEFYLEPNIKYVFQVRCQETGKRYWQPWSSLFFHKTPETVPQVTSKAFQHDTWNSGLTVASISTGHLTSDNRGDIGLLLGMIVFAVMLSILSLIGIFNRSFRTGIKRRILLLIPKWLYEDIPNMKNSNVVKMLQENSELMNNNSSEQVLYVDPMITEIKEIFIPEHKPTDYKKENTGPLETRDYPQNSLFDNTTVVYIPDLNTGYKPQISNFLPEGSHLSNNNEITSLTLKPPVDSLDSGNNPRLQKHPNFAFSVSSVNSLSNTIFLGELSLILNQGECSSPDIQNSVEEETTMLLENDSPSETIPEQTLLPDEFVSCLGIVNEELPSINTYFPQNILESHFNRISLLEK
# PROTOCOL NOTES: BRET competition vs TAMRA-labelled peptide, Nluc-IL23R membranes
pIC50: −log10 of the molar value. Bridges are numbered along the chain shown (N, C = ends). [ ]: non-standard residue; d: D form. The star is where a group is joined. NH(4-(3-pyridyl)butyl) = c1cncc(CCCCN*)c1; 2Nal = N[C@@H](Cc1ccc2ccccc2c1)C(=O)O; AEF = NCCOc1ccc(C[C@H](N)C(=O)O)cc1

BINDER: KSVWQE[AEF][2Nal]GE-{NH(4-(3-pyridyl)butyl)} (lactam 1-10, N-6; SMILES CC(C)[C@@H]1NC(=O)[C@H](CO)NC(=O)[C@@H]2CCCCNC(=O)CC[C@@H](C(=O)NCCCCc3cccnc3)NC(=O)CNC(=O)[C@H](Cc3ccc4ccccc4c3)NC(=O)[C@H](Cc3ccc(OCCN)cc3)NC(=O)[C@H](CCC(=O)N2)NC(=O)[C@H](CCC(N)=O)NC(=O)[C@H](Cc2c[nH]c3ccccc23)NC1=O) [Compound 31]
pIC50: 7.31
